- Assay protocol: gradient 5% acetonitrile 3 min, to 50% in 2 min, to 85% in 15 min, held 3 min, 100 µL/min
- Condition info: column: Zorbax Extend-C18 2.1 x 50 mm; eluents: water / acetonitrile, 0.1% formic acid
Outcome: true (1) for RP-LC retention time of at least 700 s; false (0) for anything lower.

1. CC(C)n1c(=O)c2ccccc2n(Cc2nc(-c3ccc(Br)cc3)no2)c1=O = true (1)
2. Cc1ccc2c(Nc3ccc(F)c(C#N)c3)c(C(=O)N3CCC(C)CC3)cnc2n1 = false (0)
3. CCc1nnc(-c2ccc3ccn(CC(=O)NCCc4cccs4)c3c2)o1 = true (1)
4. CCN1CCN(c2cc(C(=O)O)c3cc(NS(=O)(=O)c4cc(F)ccc4C)ccc3n2)CC1 = false (0)
5. COc1ccc(CNS(=O)(=O)c2c(C)sc(C)c2-c2cc(C(F)(F)F)on2)cc1 = true (1)
6. COC[C@@H]1CN(Cc2c(OC)cccc2OC)C[C@H]1c1ccncc1 = false (0)
7. CC(C)CNC(=O)N1CC(n2cc(C(=O)N(C)C)nn2)C1 = false (0)

---

- Assay protocol: gradient 5% acetonitrile 3 min, to 50% in 2 min, to 85% in 15 min, held 3 min, 100 µL/min
- Condition info: column: Zorbax Extend-C18 2.1 x 50 mm; eluents: water / acetonitrile, 0.1% formic acid
molecules and their reported RP-LC retention time
Test readout: RP-LC retention time (s)

1) O=C(CN1CCN(Cc2ccccc2)C1=O)NCc1ccc(F)cc1Cl = 833
2) Fc1ccccc1-c1noc(-c2nc(-c3cnccn3)no2)n1 = 877
3) Cc1cc(C(=O)NC(C)C)c2cccc(Cl)c2n1 = 718
4) O=C(Nc1ccc(OCC(=O)N2CCCN(c3ncccn3)CC2)nc1)C1CC1 = 612
5) Cc1ccc(Cl)cc1N1C(=O)CN(S(C)(=O)=O)CC1(C)C(=O)NC1CCCCC1 (stereo not given) = 880
6) COc1cc(Cl)ccc1C(=O)NC1CCN(c2cc(-c3ccc(F)cc3)[nH]n2)C1 (stereo not given) = 807
7) CCOC(=O)c1c(S(=O)(=O)N2CCC(C(=O)Nc3ccccc3)CC2)c(C)n(CC)c1C = 795
8) O=C(C1CCCN(c2nn3c(=O)c4c(nc3s2)CCCC4)C1)N1CCN(c2ccccc2F)CC1 (stereo not given) = 868
9) CCOc1ccc(-c2csc(Cc3nc(-c4ccccc4C)no3)n2)cc1 = 1310
10) CCCN(CCC)C(=O)Cn1c(CO)nc2ccccc21 = 623
11) COCCNC(=O)C1Cc2cc(C(F)(F)F)ccc2N2CCN(C(=O)c3ccco3)CC12 (stereo not given) = 767
12) COc1ccc(-n2c(=O)n(C)c(=O)c3cc(C(=O)Nc4ccccc4)cnc32)cc1 = 862
13) CCCn1cc(CCNS(=O)(=O)c2ccc(F)c(F)c2)c2cccnc21 = 884
14) Nc1nc(Cl)nc2c1ncn2[C@@H]1O[C@H](CO)[C@@H](O)[C@@H]1F = 600
15) O=C(CN1C(=O)CCc2cc(Br)ccc21)N1CCN(c2ccccc2)CC1 = 913
16) Cc1noc(C)c1S(=O)(=O)N1CCc2nn(Cc3ccccc3)c(=O)n2CC1 = 776
17) CN(CC1CCOCC1)S(=O)(=O)c1ccccc1C(F)(F)F = 861
18) Cc1noc(C2CN(C(=O)Nc3cccc(F)c3C)CC23CCOCC3)n1 (stereo not given) = 1030
19) CCC1(CC)NC(=O)N(CC(=O)Nc2ccc(C(=O)OC)cc2)C1=O = 671
20) COC(=O)c1cc(C)nc2c1c(=O)n(Cc1ccc(Cl)cc1)c(=O)n2Cc1ccco1 = 1160
